test system: Caco-2 cells; experiment: Cytotoxicity assay (CellTiter Glo) on colon epithelial carcinoma cells; settings: triazines 1-9; ratio CC50 FB789 / CC50 Caco-2
result_type: TSI Caco-2
Respond numerically, and do not add a unit to the figure.

// known answers, use as guide
smiles_data	TSI Caco-2
Oc1ccccc1/C=N/Nc1nc(Nc2ccc(F)cc2)nc(Nc2ccc(F)cc2)n1	8.8
CC(=O)Nc1ccc(/C=N/Nc2nc(Nc3ccc(F)cc3)nc(N3CCOCC3)n2)cc1	0.4

What TSI Caco-2 value was documented for this molecule, Oc1ccccc1/C=N/Nc1nc(Nc2ccc(F)cc2)nc(N2CCOCC2)n1 ? 3.7

What TSI Caco-2 value was documented for this molecule, Cc1cccc(/C=N/Nc2nc(N3CCOCC3)nc(N3CCOCC3)n2)c1 ? 1.4

What TSI Caco-2 value was documented for this molecule, Cc1cccc(/C=N/Nc2nc(Nc3ccc(F)cc3)nc(N3CCOCC3)n2)c1 ? 4.5

* * *

experiment: Cytotoxicity assay (CellTiter Glo) on lymphoma cells; details: human
# CC50 at 48 h listing for each entry below
Dear colleague, please return just the value in µM, with no unit written.

molecule	unit_of_measure	reported_value
Oc1ccccc1/C=N/Nc1cc(Nc2ccc(F)cc2)nc(Nc2ccc(F)cc2)n1 [Compound 19a]	µM	31

Below: the item to evaluate.
What CC50 at 48 h value was documented for this molecule, Oc1ccccc1/C=N/Nc1nc(Nc2ccc(F)cc2)nc(Nc2ccc(F)cc2)n1 ? 2

* * *

test: Plasma stability assay; assay type: in vitro ADME; conditions: human plasma, 24 h, 37 °C; % of Time 0
result_type: Plasmatic Stability (%)
Dear colleague, please return just the value in %, with no unit written.

// known answers, use as guide
compound	Plasmatic Stability, %
Cc1cccc(/C=N/Nc2cc(Nc3ccc(F)cc3)nc(Nc3ccc(F)cc3)c2)c1 [Compound 33b]	81.01
Oc1ccccc1/C=N/Nc1cc(Nc2ccc(F)cc2)nc(Nc2ccc(F)cc2)n1 [Compound 19a]	86.64

What Plasmatic Stability value was documented for this compound, Cc1cccc(/C=N/Nc2cc(Nc3ccc(F)cc3)nc(N3CCOCC3)c2)c1 [Compound 38b] ? 87.13

What Plasmatic Stability value was documented for this compound, Oc1ccccc1/C=N/Nc1cc(Nc2ccc(F)cc2)nc(N2CCOCC2)n1 [Compound 21a] ? 96.93

* * *

# TSI H9 listing for each entry below
tested on: H9 cells; assay: Cytotoxicity assay (CellTiter Glo) on lymphoma cells; settings: pyrimidines and pyridines; ratio CC50 FB789 / CC50 H9
Respond numerically, and do not add a unit to the figure.

// known answers, use as guide
molecule	TSI H9
Cc1cccc(/C=N/Nc2cc(Nc3ccc(F)cc3)nc(Nc3ccc(F)cc3)c2)c1 [Compound 33b]	17.0
Oc1ccccc1/C=N/Nc1cc(Nc2ccc(F)cc2)nc(Nc2ccc(F)cc2)n1 [Compound 19a]	0.5
Cc1cccc(/C=N/Nc2cc(Nc3ccc(F)cc3)nc(Nc3ccc(F)cc3)n2)c1 [Compound 19b]	1.3
Oc1ccccc1/C=N/Nc1cc(Nc2ccc(F)cc2)nc(N2CCOCC2)c1 [Compound 38a]	0.1
Cc1cccc(/C=N/Nc2cc(Nc3ccc(F)cc3)nc(N3CCOCC3)c2)c1 [Compound 38b]	5.0

Below: the item to evaluate.
What TSI H9 value was documented for this molecule, Oc1ccccc1/C=N/Nc1cc(Nc2ccc(F)cc2)nc(Nc2ccc(F)cc2)c1 [Compound 33a] ? 0.01
